Experiment: Cytotoxicity against human Hs 746T cells after 6 days by MTT assay
Assay type: functional
Details: Hs746T, 144 h, read-out: ED50 (the source's name)
Provide the reported EC50 of each item.
One number for each entry, in µg/mL.

C[C@@H]1O[C@@H](O[C@H]2[C@H](O[C@H]3[C@H](O[C@H]4CC[C@@]5(C)[C@@H](CC[C@]6(C)[C@@H]5CC=C5[C@@H]7CC(C)(C)C[C@@H](O[C@@H]8O[C@H](CO)[C@@H](O)[C@H](O)[C@H]8O[C@@H]8O[C@@H](C)[C@H](O)[C@@H](O)[C@H]8O)[C@]7(C)CC[C@]56C)[C@]4(C)CO)O[C@H](C(=O)O)[C@@H](O)[C@@H]3O)O[C@H](CO)[C@H](O)[C@@H]2O)[C@H](O)[C@H](O)[C@H]1O; 3.94

Provide each entry's EC50 from the list below.
1. O=C1c2ccc(O[C@@H]3O[C@H](CO)[C@@H](O)[C@H](O)[C@H]3O)cc2OCC1c1ccc(O)cc1 (some centres undefined) [DIHYDRODAIDZIN]
2. O=c1c(-c2ccc(O)cc2)coc2cc(O)cc(O)c12
3. CC1(C)C[C@@H](O)[C@]2(C)CC[C@]3(C)C(=CC[C@@H]4[C@@]5(C)CC[C@H](O[C@@H]6O[C@H](C(=O)O)[C@@H](O)[C@H](O)[C@H]6O[C@@H]6O[C@H](CO)[C@H](O)[C@H](O)[C@H]6O[C@@H]6O[C@H](CO)[C@@H](O)[C@H](O)[C@H]6O)[C@@](C)(CO)[C@@H]5CC[C@]43C)[C@@H]2C1

Result ::
1. 14.9
2. 5.82
3. 7.36

----------
Test: Cytotoxicity against human Hs 746T cells after 6 days by MTT assay
Type: functional
Conditions: Hs746T, 144 h, read-out: ED50 (the source's name)
Observed property: EC50 (µg/mL)
Numbers only, in µg/mL.

Here is how some molecules turned out for EC50.
COc1ccc(-c2coc3cc(O[C@@H]4O[C@H](COC(C)=O)[C@@H](O)[C@H](O)[C@H]4OC(C)=O)ccc3c2=O)cc1; 8.89
O=C1c2c(O)cc(O[C@@H]3O[C@H](CO)[C@@H](O)[C@H](O)[C@H]3O)cc2OCC1c1ccc(O)cc1 (some centres undefined) [DIHYDROGENISTIN]; 12.2
CC1(C)C[C@@H](O)[C@]2(C)CC[C@]3(C)C(=CC[C@@H]4[C@@]5(C)CC[C@H](O[C@@H]6O[C@H](C(=O)O)[C@@H](O)[C@H](O)[C@H]6O)[C@@](C)(CO)[C@@H]5CC[C@]43C)[C@@H]2C1; 9.59

Then there is this molecule:
EC50 reported for this molecule C[C@@H]1O[C@@H](O[C@H]2[C@H](O[C@@H]3CC(C)(C)C[C@H]4C5=CC[C@@H]6[C@@]7(C)CC[C@H](O[C@@H]8O[C@H](C(=O)O)[C@@H](O)[C@H](O)[C@H]8O[C@@H]8O[C@H](CO)[C@H](O)[C@H](O)[C@H]8O[C@@H]8O[C@@H](C)[C@H](O)[C@@H](O)[C@H]8O)[C@@](C)(CO)[C@@H]7CC[C@@]6(C)[C@]5(C)CC[C@@]34C)OC[C@H](O)[C@@H]2O)[C@H](O)[C@H](O)[C@H]1O : 2.47
